# System: TG-180 tumour cells
# assay details: Antitumour action on grafted TG-180 ascitic tumour
# run parameters: +IFN
property label: Tumours on 10th day, number

{"columns": ["compound", "assay system", "property label", "result"],
 "data": [
  ["NCCCC(=O)O [GABA, gamma aminobutyric acid]", "TG-180 tumour cells", "Tumours on 10th day, number", 19],
  ["OC[C@H]1O[C@@H](O[C@H]2[C@H](O)[C@@H](O)C(O)O[C@@H]2CO)[C@H](O)[C@@H](O)[C@H]1O (stereo partly shown) [Lactose, lactose]", "TG-180 tumour cells", "Tumours on 10th day, number", 9],
  ["CC(=O)N[C@H]1[C@H]([C@H](O)[C@H](O)CO)OC(O)(C(=O)O)C[C@@H]1O (stereo partly shown) [N.A.N.A, N-acetylneuraminic acid]", "TG-180 tumour cells", "Tumours on 10th day, number", 5],
  ["CC(C)(N)C(=O)O [alphaaminoiso., alpha aminoisobutyric acid]", "TG-180 tumour cells", "Tumours on 10th day, number", 15],
  ["CCC(N)C(=O)O (stereo not drawn) [alphaaminobut., alpha aminobutyric acid]", "TG-180 tumour cells", "Tumours on 10th day, number", 9],
  ["O=C[C@H](O)[C@@H](O)[C@@H](O)[C@H](O)C(=O)[O-].[Na+] [Na galacturonate, sodium galacturonate]", "TG-180 tumour cells", "Tumours on 10th day, number", 6],
  ["N[C@H]1C(O)O[C@H](CO)[C@@H](O)[C@@H]1O (stereo partly shown) [Glucosamine, glucosamine]", "TG-180 tumour cells", "Tumours on 10th day, number", 6]
]}

----------
# Test system: TG-180 tumour cells
# assay details: Antitumour action on grafted TG-180 ascitic tumour
# run parameters: +CP +IFN
MST (mean survival time) values, listed per item

{"columns": ["compound", "assay system", "MST (mean survival time), days"],
 "data": [
  ["CC(=O)N[C@H]1[C@H]([C@H](O)[C@H](O)CO)OC(O)(C(=O)O)C[C@@H]1O (stereo partly drawn)", "TG-180 tumour cells", 70],
  ["N[C@H]1C(O)O[C@H](CO)[C@@H](O)[C@@H]1O (stereo partly drawn)", "TG-180 tumour cells", 70],
  ["NCCCC(=O)O", "TG-180 tumour cells", 70]
]}
